# Test system: sicklepod (Cassia obtusifolia, CASOB)
# ASSAY NOTES: Post-emerge test, greenhouse herbicide activity screening
# Assay type: in vivo
# ASSAY CONDITIONS: Rate 63 g ai/ha; rating scale 0-100 (0 no damage, 100 complete death); 14 days after application
READOUT KIND: Post-emerge Herbicidal Activity, phytotoxicity rating CASOB

MOLECULE: COc1c(Cl)cc(F)c(-n2c(=O)cc(C(F)(F)F)n(C)c2=O)c1CC(C)(Cl)C(=O)OCCSC (stereo not shown)
REPORTED VALUE: 0
--
MOLECULE: CCCCCOC(=O)C(Cl)Cc1c(OC)c(Cl)cc(F)c1-n1c(=O)cc(C(F)(F)F)n(C)c1=O (single isomer, unassigned)
REPORTED VALUE: 80
--
MOLECULE: COCCOC(=O)C(C)(Cl)Cc1c(OC)c(Cl)cc(F)c1-n1c(=O)cc(C(F)(F)F)n(C)c1=O (stereo not shown)
REPORTED VALUE: 0
--
MOLECULE: CCCCCCOC(=O)C(C)(Cl)Cc1c(OC)c(Cl)cc(F)c1-n1c(=O)cc(C(F)(F)F)n(C)c1=O (stereo not shown)
REPORTED VALUE: 0

====

# System: green foxtail (Setaria viridis, SETVI)
# ASSAY NOTES: Pre-emerge test, greenhouse herbicide activity screening
# Format: in vivo
# ASSAY CONDITIONS: 250 g ai/ha; phytotoxicity rating 0-100, 14 days after application
Pre-emerge Herbicidal Activity SETVI values, listed per item

COMPOUND: COc1c(Cl)cc(F)c(-n2c(=O)cc(C(F)(F)F)n(C)c2=O)c1NC(=O)OCc1cc(C)cc(C)c1
MEASURED ON: green foxtail (Setaria viridis, SETVI)
Pre-emerge Herbicidal Activity SETVI: 100
//
COMPOUND: COc1c(Cl)ccc(-n2c(=O)cc(C(F)(F)F)n(C)c2=O)c1NC(=O)c1ccc2ccccc2c1
MEASURED ON: green foxtail (Setaria viridis, SETVI)
Pre-emerge Herbicidal Activity SETVI: 100
//
COMPOUND: COc1c(Cl)cc(F)c(-n2c(=O)cc(C(F)(F)F)n(C)c2=O)c1NC(=O)OCc1cc(F)ccc1F
MEASURED ON: green foxtail (Setaria viridis, SETVI)
Pre-emerge Herbicidal Activity SETVI: 100
//
COMPOUND: CC(C)Oc1c(Cl)cc(F)c(-n2c(=O)cc(C(F)(F)F)n(C)c2=O)c1NC(=O)c1ccc2ccccc2c1
MEASURED ON: green foxtail (Setaria viridis, SETVI)
Pre-emerge Herbicidal Activity SETVI: 100
//
COMPOUND: COC(=O)N(C(=O)OC)c1c(OC)c(Cl)cc(F)c1-n1c(=O)cc(C(F)(F)F)n(C)c1=O
MEASURED ON: green foxtail (Setaria viridis, SETVI)
Pre-emerge Herbicidal Activity SETVI: 100
//
COMPOUND: CCOC(=O)C(C)Oc1c(Cl)cc(F)c(-n2c(=O)cc(C(F)(F)F)n(C)c2=O)c1NC(=O)c1ccc2ccccc2c1 (stereo not shown)
MEASURED ON: green foxtail (Setaria viridis, SETVI)
Pre-emerge Herbicidal Activity SETVI: 80
//
COMPOUND: COc1c(Cl)cc(F)c(-n2c(=O)cc(C(F)(F)F)n(C)c2=O)c1NC(=O)Oc1c(C)cc(C)cc1C
MEASURED ON: green foxtail (Setaria viridis, SETVI)
Pre-emerge Herbicidal Activity SETVI: 50
//
COMPOUND: COc1c(Cl)cc(F)c(-n2c(=O)cc(C(F)(F)F)n(C)c2=O)c1NC(=O)OCc1c(Cl)cccc1Cl
MEASURED ON: green foxtail (Setaria viridis, SETVI)
Pre-emerge Herbicidal Activity SETVI: 100
//
COMPOUND: COc1ccc(COC(=O)Nc2c(OC)c(Cl)cc(F)c2-n2c(=O)cc(C(F)(F)F)n(C)c2=O)cc1
MEASURED ON: green foxtail (Setaria viridis, SETVI)
Pre-emerge Herbicidal Activity SETVI: 100
//
COMPOUND: COc1c(Cl)cc(F)c(-n2c(=O)cc(C(F)(F)F)n(C)c2=O)c1NC(=O)OCc1ccc(C)c(C)c1
MEASURED ON: green foxtail (Setaria viridis, SETVI)
Pre-emerge Herbicidal Activity SETVI: 95
//
COMPOUND: COc1c(Cl)cc(F)c(-n2c(=O)cc(C(F)(F)F)n(C)c2=O)c1NC(=O)OCc1ccc(OC(F)(F)F)cc1
MEASURED ON: green foxtail (Setaria viridis, SETVI)
Pre-emerge Herbicidal Activity SETVI: 50
//
COMPOUND: COc1c(Cl)cc(F)c(-n2c(=O)cc(C(F)(F)F)n(C)c2=O)c1NC(=O)OCc1c(F)c(F)c(F)c(F)c1F
MEASURED ON: green foxtail (Setaria viridis, SETVI)
Pre-emerge Herbicidal Activity SETVI: 100
//
COMPOUND: CCc1ccc(COC(=O)Nc2c(OC)c(Cl)cc(F)c2-n2c(=O)cc(C(F)(F)F)n(C)c2=O)cc1
MEASURED ON: green foxtail (Setaria viridis, SETVI)
Pre-emerge Herbicidal Activity SETVI: 100
//
COMPOUND: Cn1c(C(F)(F)F)cc(=O)n(-c2c(F)cc(Cl)c(Oc3ncccc3[N+](=O)[O-])c2NC(=O)c2ccc3ccccc3c2)c1=O
MEASURED ON: green foxtail (Setaria viridis, SETVI)
Pre-emerge Herbicidal Activity SETVI: 100
//
COMPOUND: Cn1c(C(F)(F)F)cc(=O)n(-c2ccc(Cl)cc2NC(=O)OCc2ccccc2F)c1=O
MEASURED ON: green foxtail (Setaria viridis, SETVI)
Pre-emerge Herbicidal Activity SETVI: 100
//
COMPOUND: Cc1ccc(OC(=O)Nc2c(C)c(Cl)cc(F)c2-n2c(=O)cc(C(F)(F)F)n(C)c2=O)cc1C
MEASURED ON: green foxtail (Setaria viridis, SETVI)
Pre-emerge Herbicidal Activity SETVI: 100
